System: MS2 coat protein
Assay: apparent KD of MS2 coat protein; higher = weaker reporter binding
Details: Eterna round: R107; input ligand: theophylline 20 uM
Exercise: for every item that follows, state its recorded apparent KD of MS2 coat protein.
Answers are plain numbers, in nM.

Here are 7 sequences. What values of apparent KD of MS2 coat protein were reported for them?
1. CAAAGUUCGUCUCUGGUCCUCUAAUCGGCUCGAGGACCGGUACGGCCGCCACUCGCCCGACAUGAGGAUCACCCAUGUCUGUAAA [Dilaanis]
2. CUGUACAUCUCGGCCGCCACUGCAACAUGUACACAUGGACAUGUACAUGAGGAUCACCCAUGUGGCAGGACCGGGAGGUGUGCAG [SSTryp B #28]
3. UUGUGGUAGGCGCAUACUCAUUUAUACAAGCGAGGACCGGUACGGCCGCCACUCGGAAUAAAACAUGAGGAUCACCCAUGUACCG [theeternabot_exclusion_MS2_Trp_A_50]
4. GCUACAUGAGGAUCACCCAUGUGUACUGAAGGAGCGGCGAAAACGCCAGGUAGGUCGCAGUAUGUGGCUCUGGGCACGAGAUGGC [#02 Same State - Arginine A]
5. AUGGUAAGAACAUGAGGAUCACCCAUGUGACGAGGACCGGUACGGCCGCCACUCGUACCUUAGUCGUCGAACAGAGGAUUCAUGU [Trypt A-MS2@10]
6. AUUUUUCUAUCAGAUACCAGACAACUCCAAACAUGAGGAUCACCCAUGUAUUGGGUGUUCGUCCCUUGGCAGCUGUUAAUGUUAA [JR_SSTheophyB_Sub003]
7. CUCCCGUGGUCGGCCGCCACUGGAGGCCUUGCGCGACAUGAGGAUCACCCAUGUUGGCCCGGCGUCAGGACCGGGAUCGCGUGAG [#1 Same State - Tryptophan B Attempt #10 (HarryS)]

Return:
[23, 211, 17.1, 40, 138, 18.1, 18.8]

Here are 4 sequences. What values of apparent KD of MS2 coat protein were reported for them?
1. CUCCCGUGGUCGGCCGCCACUGGAGGCCUCGCGCGACAUGAGGAUCACCCAUGUUGGCCCGGCGUCAGGACCGGGAUCGCGUGAG [#1 Same State - Tryptophan B Attempt #9 (HarryS)]
2. ACUUGGUGGUGAUCCCUGCCAAGAGGUGAUACCAGCAUCGAAAGAUGCCCUUGGCAGCACCAACAUGAGGAUCACCCAUGUAAUA [(MT)''-(M)'-(T')-(Theo)-(Ms2)_Design1/22_6]
3. ACAUGAGGAUCACCCAUGUAUGACUAUCCUCGAGGACCGGUACGGCCGCCACUCGAAGGAGUGGCUCGCGAGUGCGCACUUGCAA [5' end]
4. GGACUAACCAGAAGGAGCGGCACGCAGAAACUGCAAAUUCCUCCGCACGAGGAUCACCCGUGUCAGGUAGGUCGCUGGUUAGUCG [ArgBX 28]

Return:
1: 10.3; 2: 185; 3: 16.5; 4: 25.9

====

Test system: K4 kissing-loop RNA reporter;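 also: bound reporter read as fluorescence of individual clusters on recovered sequencing chips by microscopy, with normalized cluster intensities fitted with a binding model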
Experiment: apparent KD of K4 kissing-loop reporter; higher = weaker reporter binding
Conditions: Eterna round: R107; input ligand: arginine 13.2 mM
Exercise: for every item that follows, state its recorded apparent KD of K4 kissing-loop reporter.
Give bare numbers, in µM.

CAUGGGCCAGUGAUGUUGGCGCGCACGGGACGAGGACCGGUACGGCCGCCACUCGCUUUUGCUCUUAUCGGGAUAAGAAAACCGA [Enveerorle]	0.134
GUCCAACCUGGAGGAUAUCUGCUGUCCAGUGAUGUUGGACACUUUAGUAAAGGCCGGGUAGCCCGCAGAGAAGGCCGGAGUUGCC [Arceer]	0.328
GCGCGUCAUGUCAGCGGUGACACUGUCGAUACCAGCGCCGCAAGGCGCCCUUGGCAGCGACGUGCUGGAGUGAUGUUCCAGCGUC [#2 Exclusion - Theophylline A Attempt #22 (HarryS)]	0.113
GUGCGCGCGGCGGCCGCCACUCGCAUGAGAGUGAUGUUCUUGCCCGGGCCGCAAGGCCCGGGUGUGAGGACCGGGCCGGGCUGCG [#2 Same State - Tryptophan B Attempt #26 (HarryS)]	0.00109
AAUAAACAGUCGGCCGCCACUUCAAUAGACUUAUUAUUGAAUGGUGUAGUUCUUCAGUGAUGUUGAAGGACCGGGACUUUCGCGC [Isesator]	0.134

Enquiry: Any idea what apparent KD of K4 kissing-loop reporter came out for AAAUUUAUAUUAGAUACCAGCAAAUUGAAAGUUUAUUAUGACAAGAGUGAUGUUCUUGUAUGCCCUUGGCAGCUGGUAUGGGUUU [KL-XTheo-B26] on K4 kissing-loop RNA reporter?
Return: 0.106
